# System: T1, cyno PD-1, full length, on CHO-K1 cells (cyno monkey, UniProt B0LAJ3 25-288)
# T1 construct: also called CHO-K1-cPD-1; cPD-1
# T1 sequence (B0LAJ3 entry or part of it limits assumed): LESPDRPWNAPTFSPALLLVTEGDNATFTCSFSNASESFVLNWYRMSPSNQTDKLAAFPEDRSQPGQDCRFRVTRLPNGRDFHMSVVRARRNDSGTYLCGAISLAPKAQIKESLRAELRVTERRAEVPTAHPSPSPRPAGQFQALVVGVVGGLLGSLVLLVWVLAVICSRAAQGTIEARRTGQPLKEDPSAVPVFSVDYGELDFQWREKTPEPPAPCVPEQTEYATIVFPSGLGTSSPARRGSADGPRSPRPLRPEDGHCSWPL
# Assay text: flow cytometry on CHO-K1-cPD-1 cells
Reported MFI at 100 nM by item:
Kindly answer with a numeric value in MFI, unit omitted.

Solved cases (2 shown):
[
  {
    "Binder": "chimeric anti-PD-1 antibody 32B5C7 (antibody, V domains shown) VH: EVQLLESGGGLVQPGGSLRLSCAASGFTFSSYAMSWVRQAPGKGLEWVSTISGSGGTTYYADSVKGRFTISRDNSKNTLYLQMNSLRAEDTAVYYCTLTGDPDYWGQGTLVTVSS VL: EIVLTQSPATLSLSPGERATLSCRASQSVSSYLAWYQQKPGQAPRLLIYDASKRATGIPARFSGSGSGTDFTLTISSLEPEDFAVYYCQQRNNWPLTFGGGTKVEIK",
    "Assay value": 150
  },
  {
    "Binder": "chimeric anti-PD-1 antibody 76G5B3 (antibody, V domains shown) VH: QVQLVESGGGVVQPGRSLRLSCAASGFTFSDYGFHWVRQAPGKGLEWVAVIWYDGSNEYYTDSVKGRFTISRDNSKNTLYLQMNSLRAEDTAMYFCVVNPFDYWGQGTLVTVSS VL: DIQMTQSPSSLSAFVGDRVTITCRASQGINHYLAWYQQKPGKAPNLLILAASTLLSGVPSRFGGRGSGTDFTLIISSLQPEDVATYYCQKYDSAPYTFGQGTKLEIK",
    "Assay value": 297
  }
]

Prompt line: For the binder shown here, chimeric anti-PD-1 antibody 21G8F11 (antibody, V domains shown) VH: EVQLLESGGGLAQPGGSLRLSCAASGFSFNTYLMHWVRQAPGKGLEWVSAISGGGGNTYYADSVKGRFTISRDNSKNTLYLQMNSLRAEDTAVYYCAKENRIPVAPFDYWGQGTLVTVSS VL: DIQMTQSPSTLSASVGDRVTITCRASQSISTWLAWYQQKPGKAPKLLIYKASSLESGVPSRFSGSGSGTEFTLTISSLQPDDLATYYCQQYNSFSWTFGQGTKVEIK , give the reported MFI at 100 nM.
Response line: 944

Prompt line: For the binder shown here, chimeric anti-PD-1 antibody 226C3A7 (antibody, V domains shown) VH: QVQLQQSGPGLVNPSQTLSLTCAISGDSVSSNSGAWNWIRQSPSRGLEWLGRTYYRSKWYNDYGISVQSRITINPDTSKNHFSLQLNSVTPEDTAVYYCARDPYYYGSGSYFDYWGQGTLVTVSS VL: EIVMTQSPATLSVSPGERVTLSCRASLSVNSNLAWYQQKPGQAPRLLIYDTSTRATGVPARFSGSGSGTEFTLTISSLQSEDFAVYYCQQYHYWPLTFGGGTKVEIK , give the reported MFI at 100 nM.
Response line: 933

Prompt line: For the binder shown here, chimeric anti-PD-1 antibody 223G6B5 (antibody, V domains shown) VH: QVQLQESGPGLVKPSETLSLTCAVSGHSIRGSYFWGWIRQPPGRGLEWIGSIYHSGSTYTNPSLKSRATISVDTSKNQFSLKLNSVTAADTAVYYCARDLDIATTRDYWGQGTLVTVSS VL: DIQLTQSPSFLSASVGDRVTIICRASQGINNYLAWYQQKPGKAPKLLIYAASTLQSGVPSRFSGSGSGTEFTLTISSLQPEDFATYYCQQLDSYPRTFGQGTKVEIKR , give the reported MFI at 100 nM.
Response line: 2340
